read-out: solute carrier (SLC22A1), SLC22A1 (gene 6580); test: LTEA_HepaRG_SLC22A1: Life Technologies and Expression Analysis (LTEA) Assay for solute carrier (SLC22A1) using HepaRG (AID 2283524); settings: mRNA level, 48 h; actives raise or lower the signal
Active and inactive are the calls of the source. Rule for the calls: active = hit-call score of the fitted dose curve at least 0.9, where 1 is the maximum; inactive = score below 0.9.
Choose the fitting class; nothing outside active, inactive is accepted.

CCCCC(CC)CN1C(=O)C2C3C=CC(C3)C2C1=O (centres undefined): active
CC1(C)C(C=C(Cl)Cl)C1C(=O)OCc1cccc(Oc2ccccc2)c1 (centres undefined): inactive
CCCCCCC(C)OC(=O)COc1nc(F)c(Cl)c(N)c1Cl (centres undefined): inactive
CN(C)C(=O)Nc1ccc(Cl)c(Cl)c1: active
N[C@@H](Cc1cc(I)c(Oc2ccc(O)c(I)c2)c(I)c1)C(=O)O: active
C=CCOC(Cn1ccnc1)c1ccc(Cl)cc1Cl (centres undefined): active
COc1c(Cl)ccc(Cl)c1C(=O)O: inactive
O=C(c1ccc(O)cc1O)c1ccc(O)cc1O: inactive

Field: next compound
Record request — test call for CC(C)CCCCCCc1ccc(O)cc1 inactive

###

assay: TOX21_p53_BLA_p2_viability: Viability Assessment in the Tox21 HCT-116 p53 Agonism Beta-lactamase Assay, Phase 2 (AID 2283591);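 note: compound exposure lasted 16 h at 37 °C; actives lower the ATP signal meaning cytotoxicity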
Inconclusive results are not listed. Calls of active or inactive are those of the source. Rule for the calls: active = hit-call score of the fitted dose curve at least 0.9, where 1 is the maximum; inconclusive = response in the unintended direction; inactive = score below 0.9.
Choose the fitting class; nothing outside active, inactive is accepted.

Here are 3 molecules together with their reported answers.
CCCOC(=O)NCCCN(C)C: inactive
COC(=O)c1ccc(I)cc1S(=O)(=O)NC(=O)Nc1nc(C)nc(OC)n1: inactive
N[C@@H](Cc1cc(I)c(Oc2ccc(O)c(I)c2)c(I)c1)C(=O)O: inactive

Record request — test call for CC1(C)C(C=C(Cl)Cl)C1C(=O)OCc1cccc(Oc2ccccc2)c1 (stereo not drawn) inactive

Repeat for the following molecule: CC(C)(C)[C@@H](O)[C@@H](Cc1ccc(Cl)cc1)n1cncn1 inactive

###

read-out: ABC Transporter (ABCB11), ABCB11 (gene 8647); assay: LTEA_HepaRG_ABCB11: Life Technologies and Expression Analysis (LTEA) Assay for ABC Transporter (ABCB11) using HepaRG (AID 2283463); conditions: mRNA level, 48 h; actives raise or lower the signal
The source made the active and inactive calls. The calls were made as follows: active = hit-call score of the fitted dose curve at least 0.9, where 1 is the maximum; inactive = score below 0.9.
Choose the fitting class; nothing outside 1 (active), -1 (inactive) is accepted.

CC(C)CCCCCCc1ccc(O)cc1: -1
CCOC(=O)NCCOc1ccc(Oc2ccccc2)cc1: 1
CCN(Cc1c(F)cccc1Cl)c1c([N+](=O)[O-])cc(C(F)(F)F)cc1[N+](=O)[O-]: -1
COC(=O)c1ccccc1C(=O)O: -1
CSC(=O)c1cccc2nnsc12: -1

Record request — test call for O=C(Nc1ccc([N+](=O)[O-])cc1Cl)c1cc(Cl)ccc1O 1

Repeat for the following compound: CN(C)C(=O)Nc1ccc(Cl)c(Cl)c1 1

Repeat for the following compound: CCCOC(=O)c1ccc(C(=O)OCCC)nc1 -1

Repeat for the following compound: CCOC(=O)C(C)Oc1ccc(Oc2cnc3cc(Cl)ccc3n2)cc1 (centres undefined) 1

Repeat for the following compound: CCOC(=O)C(C)Oc1ccc(Oc2nc3ccc(Cl)cc3o2)cc1 (centres undefined) 1

###

Read-out: sulfotransferase (SULT2A), SULT2A1 (gene 6822)
Experiment: CLD_SULT2A_48hr: CellzDirect (CLD) Gene Expression Assay for sulfotransferase (SULT2A) at 48 hours (AID 2283710);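 note: hits raise SULT2A1 transcript above the 0.2% DMSO vehicle baseline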
Procedure: CLD_48hr is a cell-based, multiplexed-readout assay that uses hepatocyte, a human liver primary cell, with measurements taken at 48 hours after chemical dosing in a 96-well plate.CLD_SULT2A_48hr is one of 16 assay component(s) measured or calculated from the CLD_48hr assay. […] Furthermore, this assay endpoint can be referred to as a primary readout. […]
Records with an inconclusive call do not appear. Calls of active or inactive are those of the source. Rule for the calls: active = hit-call score of the fitted dose curve at least 0.9, where 1 is the maximum; inconclusive = response in the unintended direction; inactive = score below 0.9.
Choose the fitting class; nothing outside true (1) for active, false (0) for inactive is accepted.

Record request — test call for CCC(C)OC(=O)N1CCCCC1CCO (stereo not given) false (0)

Repeat for the following compound: CCOC(=O)COc1cc(-n2ncc(C(F)(F)F)c(C)c2=O)c(F)cc1Cl false (0)

Repeat for the following compound: CCCCC(CC)COC(=O)c1ccccc1C(=O)O (stereo not given) false (0)

Repeat for the following compound: CC(C)(C)[C@@H](O)[C@@H](Cc1ccc(Cl)cc1)n1cncn1 false (0)

Repeat for the following compound: CSC(=O)c1cccc2nnsc12 false (0)

Repeat for the following compound: CCOC(=O)C(C)Oc1ccc(Oc2cnc3cc(Cl)ccc3n2)cc1 (stereo not given) false (0)

###

read-out: TIMP metallopeptidase inhibitor 2 (TIMP2), TIMP2 (gene 7077); test: BSK_KF3CT_TIMP2: BioMAP Diversity Plus: KF3CT Assay for TIMP metallopeptidase inhibitor 2 (TIMP2) Biomarker Activity (AID 2283071); conditions: primary human keratinocytes with fibroblasts; actives raise or lower the signal
The source made the active and inactive calls. Rule for the calls: active = hit-call score of the fitted dose curve at least 0.9, where 1 is the maximum; inactive = score below 0.9.
Choose the fitting class; nothing outside active, inactive is accepted.

Here are 2 compounds together with their reported answers.
Cc1nn(C)c(Oc2ccccc2)c1C=NOCc1ccc(C(=O)OC(C)(C)C)cc1: inactive
O=C(O)C1(C(=O)Nc2ccc(Cl)cc2Cl)CC1: inactive

Record request — test call for CCOC(=O)c1ccc(O)cc1 inactive

Repeat for the following compound: CCN(CC)C(=O)c1cccc(C)c1 inactive

Repeat for the following compound: CC(C)(C)[C@@H](O)[C@@H](Cc1ccc(Cl)cc1)n1cncn1 inactive

Repeat for the following compound: COC(=O)c1ccc(I)cc1S(=O)(=O)NC(=O)Nc1nc(C)nc(OC)n1 inactive

Repeat for the following compound: CC(=O)[C@H]1CC[C@H]2[C@@H]3CCC4=CC(=O)CC[C@]4(C)[C@H]3CC[C@]12C inactive

Repeat for the following compound: c1ccc2[nH]c(-c3cscn3)nc2c1 inactive

Repeat for the following compound: CC(=O)S[C@@H]1CC2=CC(=O)CC[C@]2(C)[C@H]2CC[C@@]3(C)[C@@H](CC[C@@]34CCC(=O)O4)[C@H]12 inactive

Repeat for the following compound: COC(=O)c1ccccc1C(=O)O inactive

###

read-out: Ezrin (EZR), EZR (gene 7430); test: LTEA_HepaRG_EZR: Life Technologies and Expression Analysis (LTEA) Assay for Ezrin (EZR) using HepaRG (AID 2283491); conditions: mRNA level, 48 h; actives raise or lower the signal
The source made the active and inactive calls. How the source made its calls: active means hit-call score of the fitted dose curve at least 0.9, where 1 is the maximum; inactive means score below 0.9.
Choose the fitting class; nothing outside active, inactive is accepted.

Here are 10 compounds together with their reported answers.
c1ccc(Nc2ccccc2)cc1: inactive
C#C[C@]1(O)CC[C@H]2[C@@H]3CCC4=CC(=O)CC[C@@H]4[C@H]3CC[C@@]21CC: inactive
CCN(Cc1c(F)cccc1Cl)c1c([N+](=O)[O-])cc(C(F)(F)F)cc1[N+](=O)[O-]: inactive
O=C(c1ccccc1)C1CCCCC1: inactive
O=C(Nc1ccc([N+](=O)[O-])cc1Cl)c1cc(Cl)ccc1O: inactive
CC(C)CCCCCCc1ccc(O)cc1: inactive
CCC(C)OC(=O)N1CCCCC1CCO (centres undefined): inactive
CC(=O)[C@H]1CC[C@H]2[C@@H]3CCC4=CC(=O)CC[C@]4(C)[C@H]3CC[C@]12C: inactive
N[C@@H](Cc1cc(I)c(Oc2ccc(O)c(I)c2)c(I)c1)C(=O)O: inactive
CCOC(=O)C(C)Oc1ccc(Oc2nc3ccc(Cl)cc3o2)cc1 (centres undefined): inactive

Record request — test call for CCOC(=O)NCCOc1ccc(Oc2ccccc2)cc1 inactive

Repeat for the following compound: O=C(c1ccc(O)cc1O)c1ccc(O)cc1O inactive

Repeat for the following compound: COC(=O)CSc1cc(N=c2sc(=O)n3n2CCCC3)c(F)cc1Cl inactive

Repeat for the following compound: CCCCOC(=O)C(C)Oc1ccc(Oc2ccc(C(F)(F)F)cn2)cc1 (centres undefined) inactive

Repeat for the following compound: CCNc1nc(N)nc(Cl)n1 inactive

Repeat for the following compound: COCCO inactive

Repeat for the following compound: CCOC(=O)COc1cc(-n2ncc(C(F)(F)F)c(C)c2=O)c(F)cc1Cl inactive

###

test: Tanguay_ZF_120hpf_SOMI_legacy: (Legacy) Oregon State University Tanguay Lab 120 Hour Post-fertilization zebrafish Assay for Somite Malformation (AID 2283647)
Results filed as inconclusive are left out. Active and inactive are the calls of the source. Rule for the calls: active = hit-call score of the fitted dose curve at least 0.9, where 1 is the maximum; inconclusive = response in the unintended direction; inactive = score below 0.9.
Choose the fitting class; nothing outside active, inactive is accepted.

Oc1ccc(C(c2ccc(O)cc2)C(Cl)(Cl)Cl)cc1: active
CCOC(=O)COc1cc(-n2ncc(C(F)(F)F)c(C)c2=O)c(F)cc1Cl: inactive
O=C(O)C1(C(=O)Nc2ccc(Cl)cc2Cl)CC1: inactive
CCCCOC(=O)C(C)Oc1ccc(Oc2ccc(C(F)(F)F)cn2)cc1 (stereo not drawn): inactive
CCCCOC(=O)[C@@H](C)Oc1ccc(Oc2ccc(C(F)(F)F)cn2)cc1: inactive
CCN(CC)C(=O)c1cccc(C)c1: inactive

Record request — test call for S=C([S-])NCCNC(=S)[S-].[Mn+2] inactive

Repeat for the following compound: O=C(c1ccc(O)cc1O)c1ccc(O)cc1O inactive

Repeat for the following compound: CCCCC(CC)CN1C(=O)C2C3C=CC(C3)C2C1=O (stereo not drawn) inactive

Repeat for the following compound: OB(O)O inactive

Repeat for the following compound: CCOC(=O)C(C)Oc1ccc(Oc2nc3ccc(Cl)cc3o2)cc1 (stereo not drawn) inactive

Repeat for the following compound: CCCCCCC(C)OC(=O)COc1nc(F)c(Cl)c(N)c1Cl (stereo not drawn) inactive

Repeat for the following compound: CC(C)CCCCCCc1ccc(O)cc1 inactive
